# assayed-target: CYP2A1 (Rattus norvegicus)
# Construct: hydroxylation of testosterone (CYP2C11, CYP2A1, CYP3A, CYP2B1/2) in rat liver microsomes; from tissue; host or cells: rat liver, microsomes
# Sequence (P11711 whole entry): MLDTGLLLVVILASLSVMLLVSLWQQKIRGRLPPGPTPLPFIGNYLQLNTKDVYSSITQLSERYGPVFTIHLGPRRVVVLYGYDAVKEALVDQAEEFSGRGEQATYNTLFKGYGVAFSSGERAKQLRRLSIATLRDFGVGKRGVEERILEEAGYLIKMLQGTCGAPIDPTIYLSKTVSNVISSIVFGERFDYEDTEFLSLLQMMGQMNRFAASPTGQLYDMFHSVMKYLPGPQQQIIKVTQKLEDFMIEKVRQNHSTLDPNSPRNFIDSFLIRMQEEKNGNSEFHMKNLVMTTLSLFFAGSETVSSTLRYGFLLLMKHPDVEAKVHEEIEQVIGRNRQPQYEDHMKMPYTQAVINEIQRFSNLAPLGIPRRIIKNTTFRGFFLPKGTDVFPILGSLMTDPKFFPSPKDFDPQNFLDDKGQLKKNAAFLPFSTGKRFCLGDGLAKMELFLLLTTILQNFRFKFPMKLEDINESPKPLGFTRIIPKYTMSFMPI
# assay-name: Testosterone 7α-hydroxylase in rat liver microsomes
# Format: biochemical
# run-parameters: probe testosterone (7α-hydroxylation); 10 μM R116010; rat liver microsomes; read-out: percentage of inhibition, Testosterone 7α-hydroxylase (CYP2A1)
measurement-label: inhibition at 10 μM (%)

structure: C[C@@H]([C@H](c1ccc(Nc2nc3ccccc3s2)cc1)n1ccnc1)N(C)C
readout-value: 12

* * *

# assay-name: in vivo
# run-parameters: mouse, po
measurement-label: MTD (mg/kg)

compound: C[C@@H]([C@H](c1ccc(Nc2nc3ccccc3s2)cc1)n1ccnc1)N(C)C [R116010]
measurement-label: MTD
readout-value: 5
--
compound: CC1=C(/C=C/C(C)=C/C=C/C(C)=C/C(=O)O)C(C)(C)CCC1 [RA, All-trans-retinoic acid]
measurement-label: MTD
readout-value: 5

* * *

# Test system: CYP2B1/2
# assay-name: Testosterone 16β-hydroxylase in rat liver microsomes
# Type: biochemical
# run-parameters: probe testosterone (16β-hydroxylation); 10 μM R116010; rat liver microsomes; read-out: percentage of inhibition, Testosterone 16β-hydroxylase (CYP2B1/2)
measurement-label: inhibition at 10 μM (%)

compound: C[C@@H]([C@H](c1ccc(Nc2nc3ccccc3s2)cc1)n1ccnc1)N(C)C [R116010]
measurement-label: inhibition at 10 μM
uom: %
readout-value: 21

* * *

# assayed-target: 17,20-lyase (CYP17) (Rattus norvegicus, UniProt P11715)
# Sequence (P11715 1-507): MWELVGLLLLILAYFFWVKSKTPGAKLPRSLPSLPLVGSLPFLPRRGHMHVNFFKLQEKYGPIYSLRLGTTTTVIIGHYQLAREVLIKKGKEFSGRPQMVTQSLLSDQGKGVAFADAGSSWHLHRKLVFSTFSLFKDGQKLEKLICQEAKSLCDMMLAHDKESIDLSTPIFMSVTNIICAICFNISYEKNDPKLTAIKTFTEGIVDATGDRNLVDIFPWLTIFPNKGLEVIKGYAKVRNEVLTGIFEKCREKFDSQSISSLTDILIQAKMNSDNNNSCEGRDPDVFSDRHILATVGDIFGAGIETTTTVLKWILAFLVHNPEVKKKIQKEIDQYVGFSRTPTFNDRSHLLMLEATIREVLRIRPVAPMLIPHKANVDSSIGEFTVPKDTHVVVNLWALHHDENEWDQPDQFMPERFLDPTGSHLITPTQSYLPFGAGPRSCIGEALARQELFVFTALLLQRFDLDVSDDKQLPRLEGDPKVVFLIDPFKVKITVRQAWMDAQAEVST
// reported IC50 per item

molecule: C[C@@H]([C@H](c1ccc(Nc2nc3ccccc3s2)cc1)n1ccnc1)N(C)C
IC50 / nM: 250

molecule: Clc1cccc(C(c2ccc3[nH]cnc3c2)n2ccnc2)c1.Clc1cccc(C(c2ccc3[nH]cnc3c2)n2ccnc2)c1.O=C(O)/C=C/C(=O)O.O=C(O)/C=C/C(=O)O.O=C(O)/C=C/C(=O)O (racemic) [liarozole-fumarate, reference compound]
IC50 / nM: 110

* * *

# Tested on: CYP2B1/2
# assay-name: Testosterone 16β-hydroxylase in rat liver microsomes
# Assay type: biochemical
# run-parameters: probe testosterone (16β-hydroxylation); Rat liver microsomes
pIC50: −log10 of the molar value.

structure: C[C@@H]([C@H](c1ccc(Nc2nc3ccccc3s2)cc1)n1ccnc1)N(C)C
pIC50: < 5.00
